System: Streptococcus pneumoniae
Experiment Notes: Potency index, ratio of azithromycin MIC to compound MIC for erythromycin-resistant Streptococcus pneumoniae B1 expressing ermB gene
Assay type: functional
Measured Property: Ratio
Reply briefly: the number, and no unit.

Query string: Write down Ratio measured for item CC[C@H]1OC(=O)[C@H](C)[C@@H](O[C@H]2C[C@@](C)(OC)[C@@H](OC(=O)NCc3cn(Cc4c(Cl)cccc4Cl)nn3)[C@H](C)O2)[C@H](C)[C@@H](O[C@@H]2O[C@H](C)C[C@H](N(C)C)[C@H]2O)[C@](C)(O)C[C@@H](C)CN(C)[C@H](C)[C@H]2OC(=O)O[C@@]21C
Result string: 128

Query string: Write down Ratio measured for item CC[C@H]1OC(=O)[C@H](C)[C@@H](O[C@H]2C[C@@](C)(OC)[C@@H](OC(=O)NCc3cn(Cc4ccc(Cl)cc4Cl)nn3)[C@H](C)O2)[C@H](C)[C@@H](O[C@@H]2O[C@H](C)C[C@H](N(C)C)[C@H]2O)[C@](C)(O)C[C@@H](C)CN(C)[C@H](C)[C@@H](O)[C@]1(C)O
Result string: 256
